System: MDA-MB-231
Assay: cells
Set-up: MTT antiproliferative assay, absorbance at 545 nm, inhibition versus untreated control
Details: Homo sapiens, 10 uM, read-out: Growth inhibition (%) MDA-MB-231
Listing of recorded inhibition at 10 µM by entry.
Give the quantity in %, number only.

C[C@]12CC[C@@H]3c4ccc(OCc5ccccc5)cc4CC[C@H]3[C@@H]1C[C@H](CN=[N+]=[N-])[C@@H]2O :: 34.1

Ask: If you can, please state the reported inhibition at 10 µM value of C[C@]12CC[C@@H]3c4ccc(OCc5ccccc5)cc4CC[C@H]3[C@@H]1C[C@@H](CN=[N+]=[N-])[C@H]2O .
Result: 25.1

Ask: Proceed to C[C@]12CC[C@@H]3c4ccc(OCc5ccccc5)cc4CC[C@H]3[C@@H]1C[C@@H](CN=[N+]=[N-])[C@@H]2O
Result: 33.5

Ask: Also check C[C@]12CC[C@@H]3c4ccc(OCc5ccccc5)cc4CC[C@H]3[C@@H]1C[C@H](CN=[N+]=[N-])[C@H]2O
Result: 45.1

---

Target: estrogen receptor (ERα) (Homo sapiens, UniProt P03372)
Sequence (P03372 whole entry): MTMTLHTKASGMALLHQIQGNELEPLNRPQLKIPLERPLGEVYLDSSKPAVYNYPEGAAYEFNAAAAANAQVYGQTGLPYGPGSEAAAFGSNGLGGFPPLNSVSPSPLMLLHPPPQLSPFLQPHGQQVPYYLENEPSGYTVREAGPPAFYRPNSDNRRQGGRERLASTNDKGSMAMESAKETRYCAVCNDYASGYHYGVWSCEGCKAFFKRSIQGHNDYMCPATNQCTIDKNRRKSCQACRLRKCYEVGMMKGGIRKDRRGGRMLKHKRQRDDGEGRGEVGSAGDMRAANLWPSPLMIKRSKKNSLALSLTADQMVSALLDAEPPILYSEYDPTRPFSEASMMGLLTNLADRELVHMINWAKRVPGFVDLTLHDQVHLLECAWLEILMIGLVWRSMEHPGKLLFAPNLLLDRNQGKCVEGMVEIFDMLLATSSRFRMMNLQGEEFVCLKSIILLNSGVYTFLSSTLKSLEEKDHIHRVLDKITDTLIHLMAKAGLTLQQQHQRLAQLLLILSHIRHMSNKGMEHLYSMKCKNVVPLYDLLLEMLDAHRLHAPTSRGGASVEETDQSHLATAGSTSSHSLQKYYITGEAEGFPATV
Assay: estrogen-responsive luciferase reporter assay in T47D-KBluc cells (agonism)
pEC50: −log10 of the molar value.
outcome.measure: pEC50

Ask: Form entry - test system: estrogen receptor (ERα) (Homo sapiens, UniProt P03372); read-out: pEC50; compound: C[C@]12CC[C@@H]3c4ccc(OCc5ccccc5)cc4CC[C@H]3[C@@H]1C[C@H](CN=[N+]=[N-])C2=O
Result: ~6.75

---

Test system: MDA-MB-231
Experiment: cells
Set-up: MTT antiproliferative assay, absorbance at 545 nm, inhibition versus untreated control
Conditions: Homo sapiens
outcome.measure: IC50

Ask: # lookup: IC50 of C[C@]12CC[C@@H]3c4ccc(OCc5ccccc5)cc4CC[C@H]3[C@@H]1C[C@@H](CN=[N+]=[N-])C2=O
Result: 4.72 µM

Ask: Also, C[C@]12CC[C@@H]3c4ccc(OCc5ccccc5)cc4CC[C@H]3[C@@H]1C[C@H](CN=[N+]=[N-])C2=O please.
Result: 8.13 µM

---

Test system: HeLa
Assay: cells
Parameters: MTT antiproliferative assay, absorbance at 545 nm, inhibition versus untreated control
Settings: Homo sapiens
# pIC50 per entry
Schema: pIC50 number; meaning minus log10 of the concentration expressed in molar units.

C[C@]12CC[C@@H]3c4ccc(OCc5ccccc5)cc4CC[C@H]3[C@@H]1C[C@@H](CN=[N+]=[N-])C2=O :: 5.30

Then there is this compound:
Ask: Give the reported pIC50 for C[C@]12CC[C@@H]3c4ccc(OCc5ccccc5)cc4CC[C@H]3[C@@H]1C[C@H](CN=[N+]=[N-])C2=O (system: HeLa).
Result: 5.34

---

Assay: in vitro
Design: MTT assay on non-cancerous NIH/3T3 fibroblasts, absorbance at 545 nm, selectivity counter-screen
Settings: mouse, nih/3t3 cells; read-out: IC50 NIH/3T3
outcome.measure: CC50 (µM)
Your answer is read as µM, so omit the unit and give the number.

Ask: Data request, read-out CC50, for C[C@]12CC[C@@H]3c4ccc(OCc5ccccc5)cc4CC[C@H]3[C@@H]1C[C@@H](CN=[N+]=[N-])C2=O
Result: 13.6

Ask: # repeat for C[C@]12CC[C@@H]3c4ccc(OCc5ccccc5)cc4CC[C@H]3[C@@H]1C[C@H](CN=[N+]=[N-])C2=O
Result: 18.9
